test system: HepG2; details: human, hepg2 cells, 48 h
result type: Log AC50 (M)

INSERT INTO assay_data (compound_structure_string, result_type, result) VALUES
  ('CCc1ccc([S+](=O)([O-])c2nnn3c2nc(Nc2ccc(F)cc2)c2cc(Cl)ccc23)cc1', 'Log AC50 (M)', '-4.4643 M'),
  ('Cc1ccc2nc(C)cc(Nc3ccc([N+](=O)[O-])cc3)c2c1', 'Log AC50 (M)', '-4.3643 M'),
  ('CCOC(=O)c1ccc(-c2ccc(/C=C(\C#N)c3nc4cc(C)ccc4[nH]3)o2)cc1', 'Log AC50 (M)', '-4.3643 M'),
  ('NC(=NOC(=O)c1cccc(F)c1)c1ccccn1', 'Log AC50 (M)', '-4.8143 M');

----------
The following compounds are shown together with reported HepG2 viability signal, 1 uM, repeat 2 values.
test system: HepG2-A16-CD81EGFP cells; settings: nominal 1 uM (10 mM stock); […] for 15 mM, 1.2 uM for 12 mM, 2 uM for 20 mM stock; average of 2 wells; repeat 2
result type: HepG2 viability signal, 1 uM, repeat 2 (%)

INSERT INTO results (compound, quantitative_readout) VALUES
  ('Cc1ccccc1CC(=O)NCc1nnc2cc(-c3nc(C4CC4)no3)ccn12 [NCGC00457761-01]', 102.90),
  ('COc1ccc(-c2noc(-c3cccn3CC(=O)Nc3ccccc3)n2)cc1F [NCGC00445500-01]', 98.82),
  ('CCCOC(=O)c1c(NC(=O)C(C)Sc2nc(-c3ccccc3)cc(C(F)(F)F)n2)sc(C(=O)N(C)C)c1C (centres unmarked) [NCGC00101274-01]', 104.19),
  ('Cc1nn2c(c1-c1ccccc1Oc1ccccc1)N(Cc1ccccc1O)CCC2 [NCGC00420455-01]', 99.80),
  ('CCOC(=O)c1c(S(=O)(=O)N2CCCC(C(=O)N3CCN(c4cccc(C)c4C)CC3)C2)c(C)n(C)c1C (centres unmarked) [NCGC00138143-01]', 101.67),
  ('COc1ccc(-c2cc(C(F)(F)F)nc(SCCC(=O)Nc3cc(C)ccc3O)n2)cc1 [NCGC00101472-01]', 103.33),
  ('COc1ccccc1Nc1cnc2ccc(-c3ccc(OC)c(OC)c3)nn12 [NCGC00412573-01]', 106.68),
  ('CCc1cccc(-n2c(=O)c3cccnc3n2CC(=O)NCc2ccccc2)c1 [NCGC00128448-01]', 105.26),
  ('CC1=C[C@@H](CN(C)C)[C@H](C(C)C)C[C@H]1Cc1nc2ncc(Cl)cc2[nH]1 [NCGC00421128-01]', 100.56),
  ('COC(=O)c1ccc2[nH]c(C[C@@H]3C[C@@H](C(C)C)[C@H](CNC4CCCCC4)C=C3C)nc2c1 [NCGC00401987-01]', 103.84),
  ('COc1ccc(N2CCN(c3cc(C4CC(N)C4)nc(N)n3)CC2(C)C)cc1 (centres unmarked) [NCGC00422579-01]', 102.33),
  ('COc1ccc(C2Sc3ccccc3N=C3C2=C(O)c2ccccc23)c(OC)c1OC (centres unmarked) [NCGC00108825-01]', 77.27),
  ('CC1=C(C(=O)Nc2ccc(C)cc2C)C(c2ccc([N+](=O)[O-])cc2)n2ncc(C(=O)Nc3ccc(F)cc3)c2N1 (centres unmarked) [NCGC00126356-01]', 98.93),
  ('CCN(Cc1ccccc1)C(=O)CCC[C@@H]1[C@H]2CCCN3CCC[C@@H](CN1C(=O)c1ccccc1)[C@@H]23 [NCGC00429496-01]', 99.16),
  ('CCOC(=O)C1(Cc2ccccc2C(F)(F)F)CCNCC1 [NCGC00433719-01]', 106.17),
  ('CC1=C(C(=O)Nc2ccc(C)cc2C)C(c2ccc(Br)cc2)n2ncc(C(=O)Nc3cccc(C)c3)c2N1 (centres unmarked) [NCGC00126300-01]', 95.30),
  ('N=c1n(CCN2CCCCC2)c2ccccc2n1CC(O)COc1ccc(Cl)cc1Cl (centres unmarked) [NCGC00100256-01]', 103.32),
  ('CC(C)C(=O)N1Cc2ccccc2CC2(CCCN(CC3CCCCC3)C2)C1 (centres unmarked) [NCGC00377456-01]', 102.51),
  ('CCOc1ccc(Cl)cc1CN(C)CC1(O)CCCNC1 (centres unmarked) [NCGC00439019-01]', 100.51),
  ('COc1cccc(CN2CCC(Oc3ccc(-c4noc(C5CC5)n4)cc3)C2)c1 (centres unmarked) [NCGC00440915-01]', 97.97),
  ('CC1CCCN(Cc2c(O)ccc3c(=O)c(-c4ccccc4Cl)c(C(F)(F)F)oc23)C1 (centres unmarked) [NCGC00100585-01]', 105.16),
  ('CCN1CCN(Cc2c(O)ccc3c(=O)c(Oc4ccccc4Cl)c(C(F)(F)F)oc23)CC1 [NCGC00101484-01]', 99.03),
  ('Cc1nn2c(c1-c1ccccc1-c1ccccc1)N(CCC(C)C)CCC2 [NCGC00420437-01]', 106.23),
  ('CCOC(=O)c1ccc(NC2=CC(c3ccc(O)c(OCC)c3)N(c3ccc(C(=O)OCC)cc3)C2=O)cc1 (centres unmarked) [NCGC00102600-01]', 100.94),
  ('CCOC(=O)C1(Cc2ccccc2Cl)CCNCC1 [NCGC00430911-01]', 100.98),
  ('Oc1ccccc1-c1cc(-c2cccnc2)c2cncn2c1 [NCGC00412170-01]', 95.01),
  ('c1ccc(Nc2cc3c(cn2)CN(Cc2ccc4[nH]ccc4c2)CCN3)cc1 [NCGC00411105-01]', 44.56),
  ('CCc1ccc(Oc2c(C(F)(F)F)oc3c(CN4CCN(CC)CC4)c(O)ccc3c2=O)cc1 [NCGC00101506-01]', 92.46),
  ('CN1CCN(C(=O)c2ccc3c(c2)N(Cc2ccc(C(F)(F)F)cc2)C(=O)c2ccccc2S3)CC1 [NCGC00108242-01]', 102.88);

----------
system: HepG2; settings: human, hepg2 cells, 48 h
result type: Log AC50 (M)

INSERT INTO measurements (compound, endpoint_unit, quantitative_readout) VALUES
  ('CN1CCC(Nc2ncc3ncnc(Nc4ccc(F)c(Cl)c4)c3n2)CC1.Cl.Cl', 'M', -4.7643),
  ('COc1ccc(CN2CCCn3nc(C)c(-c4ccccc4Oc4ccccc4)c32)cc1O', 'M', -4.3643),
  ('SC(=Nc1ccncc1)NCc1ccccc1', 'M', -4.5643),
  ('OC(CNCCc1ccccc1)COc1ccc(OCC(O)CNCCc2ccccc2)cc1 (stereo not shown)', 'M', -4.3643),
  ('COC(=O)C1=C(C)NC(C)=C(C(=O)OC(C)(C)CN(C)CCC(c2ccccc2)c2ccccc2)C1c1cccc([N+](=O)[O-])c1.Cl (stereo not shown)', 'M', -4.6143),
  ('CC1CCCN(Cc2c(O)ccc3c4c(c(=O)oc23)CCCC4)C1 (stereo not shown)', 'M', -4.9143),
  ('OC[C@H]1CCN(Cc2ccc(-c3cccc(Cl)c3Cl)o2)C[C@@H]1O', 'M', -4.5143),
  ('CCCCOc1ccc(-c2nc(C3CC(=O)N(C4CCCCC4)C3)no2)cc1 (stereo not shown)', 'M', -4.4643),
  ('COc1cc(Cl)c(NC2=CC(=O)C(=O)c3ccccc32)c(OC)c1', 'M', -4.3643),
  ('C/C(=N\NC(=O)c1cccc(Br)c1)c1ccccn1', 'M', -5.8643);

----------
The following compounds are shown together with reported AC50 values.
tested on: P. falciparum Dd2 Cytb A122D; test: SYBR Green ABS proliferation assay, NCGC00473217 selected clone F12; type: cell-based, Plasmodium falciparum; conditions: Plasmodium falciparum, DD2, cytochrome b mutant line, fourth value triple, c12; […]; read-out: log AC50, mean (converted)
result type: AC50 (µM)

INSERT INTO assay_data (compound_structure_string, result_type, quantitative_readout) VALUES
  ('CC(C)c1nc2c(c(-c3ccc(O)cc3)n1)CCN(Cc1ccccc1C(F)(F)F)CC2', 'AC50', 4.55),
  ('CC(C)c1nc2c(c(-c3ccc(O)cc3)n1)CCN(Cc1ccc(OC(F)(F)F)cc1)CC2', 'AC50', 6.43),
  ('O=c1[nH]c(N2CCOCC2)nc2c1CCN(Cc1ccc(Cl)c(F)c1)CC2', 'AC50', 12.8),
  ('CCCN1C(CC2CCCCC2)=N[S+](=O)([O-])c2cc(NC(=O)c3ccc(F)cc3)ccc21', 'AC50', 3.3),
  ('O=C(c1cccc(Cl)c1)N1CCc2nc(C3CC3)nc(-c3ccc(O)cc3)c2CC1', 'AC50', 15.5),
  ('CCCN1C(Cc2ccccc2)=N[S+](=O)([O-])c2cc(NC(=O)c3cccs3)ccc21', 'AC50', 7.1),
  ('CCCN1C(CC(C)C)=N[S+](=O)([O-])c2cc(NC(=O)c3ccccc3OC)ccc21', 'AC50', 1.12),
  ('CCCN1C(c2ccccc2)=NS(=O)(=O)c2cc(NC(=O)c3cccs3)ccc21', 'AC50', 1.53),
  ('c1ccc(OCCNc2nc(-c3cccnc3)nc3c2CCNCC3)cc1', 'AC50', 7.21);
